Tested on: SNB-75 CNS
method.description: NCI-60 one-dose screen, 48 h (100 = growth as untreated, 0 = no growth, -100 = all killed)
protocol.conditions: 10 µM unless noted
Method: Growth inhibition of the SNB-75 human tumor cell line is measured as a screen for anti-cancer activity. Cells are grown in 96 well plates and exposed to the test compound for 48 hours. Compounds are tested at a single concentration, which is 10^-5 M for most compounds. The reported endpoint is percent growth (GI% or GIPRCNT), where numbers from 0 - 100% represent growth inhibition, and numbers from -100% - 0 represent cell death. For example, a value of 40 represents 60% growth inhibition. […]
Compounds without any hit were thinned out: in the full panel of roughly 83,000, 20% have a hit.
Items are presented alongside their recorded growth.
Write the value in % as a bare number.

| molecular.string | assayed.system | property | experimental.result |
| --- | --- | --- | --- |
| CC[C@H](C)[C@H](NC(=O)[C@H]1CCCCN1C)C(=O)N(C)[C@H](C[C@@H](OC(C)=O)c1cccc(C(=O)N[C@@H](Cc2ccccc2)C[C@H](C)C(=O)O)n1)C(C)C | SNB-75 CNS | growth | 8.07 |
| COc1ccc(O)c(CNC(=O)CN2CCCC2=O)c1 | SNB-75 CNS | growth | 81.3 |

Memo: CC(=O)Nc1nc2c(s1)CC[C@@]1(C)C2=CC[C@H]2[C@@H]3CC[C@H](O)[C@@]3(C)CC[C@@H]21 , reported growth: 54.5

Memo: CC(C)CCC1(CCCl)C(=O)NC(=O)NC1=O , reported growth: 85.3

* * *

Test system: UACC-257 melanoma
method.description: NCI-60 one-dose screen, 48 h
protocol.conditions: 10 µM unless noted
The panel holds about 83,000 compounds, 20% with a hit somewhere; the sample as a whole holds those more often. Activity calls are given as the source filed them. Rule for the calls: active = growth percent below 10; inactive = the rest.
Bench note: report the call from class 1 = active, class 0 = inactive

Check out these entries, answers already filled in.
| compound | label |
| --- | --- |
| COc1ccc(/C=C\c2cc(OC)c(OC)c(OC)c2)c(NS(=O)(=O)c2ccc(F)cc2)c1O | class 0 |
| O=P(Oc1ccc(Cl)cc1)(N1CC1)N1CC1 | class 0 |
| CCn1nccc1NC(=O)C(=O)c1cn(Cc2ccc(F)cc2)c2cccc(OC)c12 | class 0 |

Hi, do you know how CCC1(C(C)C)C(=O)NC(=S)NC1=O came out in this test?
class 0

Hi, do you know how C[C@]12CC[C@H]3[C@@H](C[C@@H]4SC(Nc5ccccc5)=N[C@@]45CC(O)CC[C@]35C)[C@@H]1CCC2O (stereo not given in full) came out in this test?
class 0

Hi, do you know how CNC(=O)Oc1ccc(C(C)(C)C)cc1OC(=O)NC came out in this test?
class 0

Hi, do you know how O=C(CC1(O)C(=O)Nc2ccc(Cl)cc21)c1ccc(C(=O)NCC2CCC3(CC2)OOC2(CCCCC2)OO3)cc1 (stereo not given) came out in this test?
class 0

Hi, do you know how COc1ccc2c(c1)c(-c1nc(-c3c[nH]c4ncccc34)cs1)cn2CCN1CCOCC1 came out in this test?
class 0

* * *

System: PC-3 prostate
method.description: NCI-60 one-dose screen, 48 h (100 = growth as untreated, 0 = no growth, -100 = all killed)
protocol.conditions: 10 µM unless noted
Compounds without any hit were thinned out: in the full panel of roughly 83,000, 20% have a hit.
property: growth (%)
Write the value in % as a bare number.

For orientation, consider the following solved cases.
| molecule | assayed.system | property | experimental.result |
| --- | --- | --- | --- |
| CC(=O)O[C@H](C[C@H](C(C)C)N(C)C(=O)[C@@H](NC(=O)[C@H]1CCCCN1C)C(C)C)c1nc(C(=O)NC2CCC(C(=O)O)CC2)cs1 (some centres undefined) | PC-3 prostate | growth | 48.5 |
| Clc1cccc(NCOOC2(OOCNc3cccc(Cl)c3)CCCCC2)c1 | PC-3 prostate | growth | 77.6 |

Now for a further molecule.
// assay PC-3 prostate, entry CCn1c2ccccc2c2cc(C(=O)c3ccc(C)c4ccccc34)ccc21 , growth value = 18.7

Data provenance is PubChem BioAssay (NCI).
